# target: CDK2/Cyclin A (Homo sapiens, UniProt P24941)
# procedure summary: CDK2/Cyclin A kinase assay (Nanosyn, Caliper microfluidic)
# experimental context: 12-point dose-response, ATP at Km (50 μM), 3 hr
endpoint label: pIC50
Quick note: pIC50 values are minus log10 of concentrations in mol/L.

Answered cases to consult:
1) S=C1NCC2(CCCCC2)n2c1cc1cnc(N[C@H]3CCCNC3)nc12 7.00
2) O=C1NCC2(CCCCC2)n2c1cc1cnc(N[C@@H]3CCCN[C@@H]3c3ccccc3)nc12 4.15

In: Give its pIC50 value. Item: "N[C@H]1CC[C@@H](Nc2ncc3cc4n(c3n2)C2(CCCCC2)CN=C4)CC1"
Out: 6.09

In: Give its pIC50 value. Item: "O=C1NCC2(CCCCC2)n2c1cc1cnc(N[C@H]3C[C@@H](O)CNC3=O)nc12"
Out: 4.19
